Target Desc: p65 (RelA) (Homo sapiens)
Sequence (Q04206 whole entry): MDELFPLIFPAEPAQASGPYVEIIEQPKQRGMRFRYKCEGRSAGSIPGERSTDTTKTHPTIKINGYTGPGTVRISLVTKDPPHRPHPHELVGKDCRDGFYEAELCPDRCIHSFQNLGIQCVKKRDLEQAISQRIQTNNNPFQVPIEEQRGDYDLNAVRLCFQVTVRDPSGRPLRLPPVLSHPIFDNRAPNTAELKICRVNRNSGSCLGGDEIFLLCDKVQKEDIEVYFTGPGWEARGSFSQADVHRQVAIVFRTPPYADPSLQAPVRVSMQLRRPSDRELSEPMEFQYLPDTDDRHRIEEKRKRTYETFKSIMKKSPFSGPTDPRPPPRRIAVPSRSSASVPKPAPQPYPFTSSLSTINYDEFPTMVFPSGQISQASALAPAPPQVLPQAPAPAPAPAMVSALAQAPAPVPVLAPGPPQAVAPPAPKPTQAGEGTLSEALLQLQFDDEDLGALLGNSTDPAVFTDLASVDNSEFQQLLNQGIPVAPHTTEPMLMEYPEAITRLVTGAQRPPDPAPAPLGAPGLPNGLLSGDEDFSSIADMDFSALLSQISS
Method Description: TransAM NF-κB Family DNA Binding ELISA, p65
Test Conditions: p65 binding IC50 (uM), binding to NF-κB sites
Counter-ions that a name gives are not always drawn.
Listing of recorded log10 IC50 by entry.
Record value = log10 of IC50 given in µM.

O=C(NC1=CC(=O)C2OC2C1O)c1ccc(C(F)(F)F)nc1O (racemic); 0.81
COc1c(C(=O)NC2=CC(=O)C3OC3C2O)ccc2cccnc12 (racemic) [Example 33, trifluoroacetate]; 0.68
O=C(NC1=CC(=O)C2OC2C1O)c1cc2ccccc2nc1O (racemic); 0.15
O=C(NC1=CC(=O)C2OC2C1=O)c1cc2ccccc2nc1O (racemic); 0.48
Cc1ccc(C(=O)NC2=CC(=O)C3OC3C2O)c(O)n1 (racemic); 0.45
COc1nccnc1C(=O)NC1=CC(=O)C2OC2C1O (racemic); 0.67
COc1ncccc1C(=O)NC1=CC(=O)C2OC2C1O (racemic) [Example 16]; -0.06
COc1cc2ccccc2nc1C(=O)NC1=CC(=O)C2OC2C1O (racemic); 1.58

Okay, now this compound:
[ask] Entry O=C(NC1=CC(=O)C2OC2C1=O)c1ccncc1O (racemic) has what log10 IC50?
[reply] 1.08
